# Tested on: Streptococcus pneumoniae
# assay: Antibacterial activity against Streptococcus pneumoniae 49619 by NCCLS method
# Assay type: functional
experimental-readout: MIC
Field: value (include unit after the number)

Any idea what its MIC is? The compound is C=CCN(C)[C@H]1C[C@@H](C)O[C@@H](O[C@@H]2[C@@H](C)[C@H](OC(=O)Cc3ccccn3)[C@@H](C)C(=O)O[C@H](CC)[C@@]3(C)OC(=O)N(CCCCn4cnc(-c5cccnc5)c4)[C@@H]3[C@@H](C)C(=O)[C@H](C)C[C@@]2(C)OC)[C@@H]1O 0.008 µg/mL

State the recorded MIC for this entry: C=CCN(C)[C@H]1C[C@@H](C)O[C@@H](O[C@@H]2[C@@H](C)[C@H](OC(=O)Cc3ccccn3)[C@@H](C)C(=O)O[C@H](CC)[C@@]3(C)OC(=O)N(CCCCn4cnc(-c5ccccc5)c4)[C@@H]3[C@@H](C)C(=O)[C@H](C)C[C@@]2(C)OC)[C@@H]1O 0.03 µg/mL

Record request: MIC value, item CC[C@H]1OC(=O)[C@H](C)[C@@H](OC(=O)Cc2cccnc2)[C@H](C)[C@@H](O[C@@H]2O[C@H](C)C[C@H](N(C)CC)[C@H]2O)[C@](C)(OC)C[C@@H](C)C(=O)[C@H](C)[C@H]2N(CCCCn3cnc(-c4cccnc4)c3)C(=O)O[C@]12C 0.03 µg/mL

Look up MIC: C=CCN(C)[C@H]1C[C@@H](C)O[C@@H](O[C@@H]2[C@@H](C)[C@H](OC(=O)Cc3ccccn3)[C@@H](C)C(=O)O[C@H](CC)[C@@]3(C)OC(=O)N(CCCCn4cnc5cncnc54)[C@@H]3[C@@H](C)C(=O)[C@H](C)C[C@@]2(C)OC)[C@@H]1O 0.06 µg/mL

I am curious: what MIC value has been reported for CC[C@H]1OC(=O)[C@H](C)[C@@H](O[C@H]2C[C@@](C)(OC)[C@@H](O)[C@H](C)O2)[C@H](C)[C@@H](O[C@@H]2O[C@H](C)C[C@H](N(C)C)[C@H]2O)[C@](C)(OC)C[C@@H](C)C(=O)[C@H](C)[C@@H](O)[C@]1(C)O ? 0.125 µg/mL

Value lookup for MIC; key = C=CCN(C)[C@H]1C[C@@H](C)O[C@@H](O[C@@H]2[C@@H](C)[C@H](OC(=O)Cc3ccccn3)[C@@H](C)C(=O)O[C@H](CC)[C@@]3(C)OC(=O)N(CCCCn4cnc(-c5ccco5)c4)[C@@H]3[C@@H](C)C(=O)[C@H](C)C[C@@]2(C)OC)[C@@H]1O 0.03 µg/mL

I am curious: what MIC value has been reported for C=CCN(C)[C@H]1C[C@@H](C)O[C@@H](O[C@@H]2[C@@H](C)[C@H](OC(=O)Cc3ccccn3)[C@@H](C)C(=O)O[C@H](CC)[C@@]3(C)OC(=O)N(CCCCn4cnc5c(N)ncnc54)[C@@H]3[C@@H](C)C(=O)[C@H](C)C[C@@]2(C)OC)[C@@H]1O ? 0.06 µg/mL

Value lookup for MIC; key = C=CCN(C)[C@H]1C[C@@H](C)O[C@@H](O[C@@H]2[C@@H](C)[C@H](OC(=O)Cc3cccnc3)[C@@H](C)C(=O)O[C@H](CC)[C@@]3(C)OC(=O)N(CCCCn4cnc5ncccc54)[C@@H]3[C@@H](C)C(=O)[C@H](C)C[C@@]2(C)OC)[C@@H]1O 0.03 µg/mL

Data provenance is ChEMBL document CHEMBL1933046.
